In this section we review reported melting point values for a set of molecules.

Use these answered entries as a reference point.
O=C(O)COc1ccc(NC(=O)c2c[nH]c3c2C(=O)CCC3)cc1F : 246 to 248 °C
CC(C)NCCOc1ccc(NC(=O)c2c[nH]c3c2C(=O)CCC3)cc1 : 284 to 286 °C
CN1CCC(COc2ccncc2NC(=O)c2c[nH]c3c2C(=O)CCC3)C1 (stereo not drawn) : 209 to 211 °C
O=C(Nc1ccc2c(c1)OCCO2)c1c[nH]c2c1C(=O)CCCC2 : 222 to 223 °C
CCNCCOc1ccc(NC(=O)c2c[nH]c3c2C(=O)CCC3)cc1 : 140 to 141 °C

Exercise: # get_value(readout='melting point', item= `CN(C)CCCOc1ccncc1NC(=O)c1c[nH]c2c1C(=O)CCC2` )
Solution: 247 °C

Exercise: # get_value(readout='melting point', item= `CCN(CC)C(=O)COc1ccc(NC(=O)c2c[nH]c3c2C(=O)CCC3)cc1F` )
Solution: 193 to 196 °C

Exercise: # get_value(readout='melting point', item= CC1CC(=O)c2c(C(=O)Nc3ccc(OCCO)cc3)c[nH]c2C1 (stereo not drawn) )
Solution: 245 to 247 °C

Exercise: # get_value(readout='melting point', item= `Cl.O=C(Nc1cnccc1OCCN1CCCC1)c1c[nH]c2c1C(=O)CCCC2` )
Solution: 160 to 162 °C

###

In this section we review reported melting point values for a set of compounds.

Use these answered entries as a reference point.
CC(C)CNCCOc1ccc(NC(=O)c2c[nH]c3c2C(=O)CCC3)c(F)c1 : 152 to 155 °C
CNCc1ccc(NC(=O)c2c[nH]c3c2C(=O)CCC3)c(F)c1 : 186 to 188 °C
O=C(Nc1ccc(OCCNCC2CC2)cc1F)c1c[nH]c2c1C(=O)CCC2 : 247 to 250 °C
CCCN(CCC)CCNC(=O)COc1ccc(NC(=O)c2c[nH]c3c2C(=O)CCC3)cc1 : 148 to 150 °C
CC1CC(=O)c2c(C(=O)Nc3ccc(CO)cc3)c[nH]c2C1 (stereo not shown) : 260 to 262 °C

Exercise: # get_value(readout='melting point', item= `CC(C)NCc1ccc(NC(=O)c2c[nH]c3c2C(=O)CCC3)cc1` )
Solution: 164 to 166 °C

Exercise: # get_value(readout='melting point', item= `CC(C)NCCOc1ccncc1NC(=O)c1c[nH]c2c1C(=O)CCC2.Cl` )
Solution: 167 to 169 °C

###

In this section we review reported melting point values for a set of molecules.

Cl.O=C(Nc1cnccc1OCCNCc1ccccc1)c1c[nH]c2c1C(=O)CCC2 : 143 to 145 °C

Exercise: # get_value(readout='melting point', item= `O=C(Nc1ccc(CNC2CC2)cc1)c1c[nH]c2c1C(=O)CCC2` )
Solution: 171 to 173 °C

Exercise: # get_value(readout='melting point', item= O=C(Nc1ccc(OCCC2CCCCN2)cc1)c1c[nH]c2c1C(=O)CCC2 (stereo not shown) )
Solution: 281 to 285 °C

Exercise: # get_value(readout='melting point', item= `CCN(CC)CCN(C)C(=O)COc1ccc(NC(=O)c2c[nH]c3c2C(=O)CCC3)cc1` )
Solution: 220 to 228 °C

Exercise: # get_value(readout='melting point', item= `CC(C)(C)NCCOc1ccncc1NC(=O)c1c[nH]c2c1C(=O)CCC2` )
Solution: 274 to 278 °C

Exercise: # get_value(readout='melting point', item= `CCCNCCOc1ccc(NC(=O)c2c[nH]c3c2C(=O)CCC3)cc1F.Cl` )
Solution: 373 °C

Exercise: # get_value(readout='melting point', item= CC1CC(=O)c2c(C(=O)Nc3ccc4c(c3)OC(C)(C)O4)c[nH]c2C1 (stereo not shown) )
Solution: 155 to 157 °C

Exercise: # get_value(readout='melting point', item= `O=C(Nc1ccc(CCN2CCCC2)cc1)c1c[nH]c2c1C(=O)CCC2` )
Solution: 184 to 186 °C

Exercise: # get_value(readout='melting point', item= `Cl.O=C(Nc1cnccc1OCc1cccnc1)c1c[nH]c2c1C(=O)CCC2` )
Solution: 276 to 277 °C

Exercise: # get_value(readout='melting point', item= `O=C(Nc1ccc(OC[C@@H]2CCCN2)cc1)c1c[nH]c2c1C(=O)CCC2` )
Solution: 165 to 167 °C

Exercise: # get_value(readout='melting point', item= `O=C(Nc1ccc2c(c1)CCN2)c1c[nH]c2c1C(=O)CCC2` )
Solution: 283 to 286 °C

Exercise: # get_value(readout='melting point', item= CC1CC(=O)c2c(C(=O)Nc3ccc4c(c3)OCCO4)c[nH]c2C1 (stereo not shown) )
Solution: 290 to 292 °C

###

In this section we review reported melting point values for a set of compounds.

Use these answered entries as a reference point.
CCCCNCCOc1ccc(NC(=O)c2c[nH]c3c2C(=O)CCC3)cc1.Cl : 187 to 190 °C
Cl.O=C(Nc1ccc(OCC2CCCNC2)cc1)c1c[nH]c2c1C(=O)CCC2 (stereo not drawn) : 196 to 199 °C

Exercise: # get_value(readout='melting point', item= `CN(C)CCOc1ccc(NC(=O)c2c[nH]c3c2C(=O)CCC3)cc1F` )
Solution: 203 °C

###

study-system: GABAa receptor
assay: GABAa receptor binding assay (3H-RO15-1788 displacement)
test-conditions: rat cortical tissue homogenate; radioligand 0.5 nM 3H-RO15-1788 [3H-Flumazenil]; 30 min at 4° C.
Method: The pharmaceutical utility of compounds of this invention are indicated by the following assay for GABAa receptor binding activity. Assays are carried out as described in Thomas and Tallman (J. Bio. Chem. 156:9838-9842 , J. Neurosci. 3:433-440, 1983). Rat cortical tissue is dissected and homogenized in 25 volumes (w/v) of 0.05 M Tris HCl buffer (pH 7.4 at 4° C.). The tissue homogenate is centrifuged in the cold (4°) at 20,000×g for 20′. […]
reported-metric: Ki (µM)

(A) O=C(Nc1ccc2c(c1)NCC2)c1c[nH]c2c1C(=O)CCC2 [Compound 13]
(B) O=C(Nc1ccc(CNC2CC2)cc1)c1c[nH]c2c1C(=O)CCC2 [Compound 5]
Exercise: Identify the entry with the smaller Ki: A or B . Provide the label of your selected option as the answer.
Solution: B
(B: 0.009 µM, A: 0.024 µM)

(P) COCCOc1ccc(NC(=O)c2c[nH]c3c2C(=O)CCC3)cc1 [Compound 2]
(Q) CNCc1cccc(NC(=O)c2c[nH]c3c2C(=O)CCC3)c1 [Compound 1]
Exercise: Identify the entry with the smaller Ki: P or Q . Provide the label of your selected option as the answer.
Solution: P

(a) CNCCc1ccc(NC(=O)c2c[nH]c3c2C(=O)CCC3)cc1 [Compound 4]
(b) O=C(Nc1ccc2c(c1)OCCO2)c1c[nH]c2c1C(=O)CCCC2 [Compound 12]
Exercise: Hi team, can someone confirm which has the larger Ki: a or b ? Thanks. Provide the label of your selected option as the answer.
Solution: b
(b: 0.005 µM, a: 0.00024 µM)

(P) CC1(C)CC(=O)c2c(C(=O)Nc3cccc(CO)c3)c[nH]c2C1 [Compound 8]
(Q) CNCc1ccc(NC(=O)c2c[nH]c3c2C(=O)CCC3)c(F)c1 [Compound 3]
(R) CC1CC(=O)c2c(C(=O)Nc3ccc(OCCO)cc3)c[nH]c2C1 (centres unmarked) [Compound 9]
Exercise: Please list these molecules in decreasing order of Ki. Write the labels, ordered according to the request.
Solution: Q, P, R

###

reported-metric: melting point

Use these answered entries as a reference point.
NCc1ccc(NC(=O)c2c[nH]c3c2C(=O)CCC3)cc1 : > 200 °C (dec.)
O=C(Nc1cnccc1OCCN1CCCC1)c1c[nH]c2c1C(=O)CCC2 : 148 to 150 °C
CNCCc1ccc(NC(=O)c2c[nH]c3c2C(=O)CCC3)cc1 : 197 to 200 °C

Pending compound:
Exercise: # get_value(readout='melting point', item= `CC(C)(C)NCCOc1ccc(NC(=O)c2c[nH]c3c2C(=O)CCC3)cc1` )
Solution: 290 to 292 °C

###

In this section we review reported melting point values for a set of compounds.

Use these answered entries as a reference point.
O=C(Nc1ccc(OCCO)cc1)c1c[nH]c2c1C(=O)CCC2 : 245 to 247 °C
CC1(C)CC(=O)c2c(C(=O)Nc3ccc4c(c3)OCOC4)c[nH]c2C1 : 234 to 236 °C
O=C(Nc1ccc2c(c1)OCCO2)c1c[nH]c2c1C(=O)CCC2 : 254 to 256 °C
CC1(C)CC(=O)c2c(C(=O)Nc3ccc(OCCO)cc3)c[nH]c2C1 : 268 to 270 °C
O=C(Nc1ccc2c(c1)NCC2)c1c[nH]c2c1C(=O)CCC2 : 322 to 323 °C

Exercise: # get_value(readout='melting point', item= `O=C(Nc1ccc2c(c1)OCO2)c1c[nH]c2c1C(=O)CCCC2` )
Solution: 210 to 212 °C

Exercise: # get_value(readout='melting point', item= CC1CC(=O)c2c(C(=O)Nc3ccc4c(c3)OCO4)c[nH]c2C1 (stereo not drawn) )
Solution: 297 to 299 °C

Exercise: # get_value(readout='melting point', item= CNCc1ccc(NC(=O)c2c[nH]c3c2C(=O)CC(C)C3)cc1 (stereo not drawn) )
Solution: 217 to 219 °C

Exercise: # get_value(readout='melting point', item= `CN(C)CCOc1ccncc1NC(=O)c1c[nH]c2c1C(=O)CCC2` )
Solution: 163 to 166 °C
